Each entry below lists one item and its recorded polymerase ribozyme fitness (log ratio) value.
B1: TPR t1 (parent)
chain: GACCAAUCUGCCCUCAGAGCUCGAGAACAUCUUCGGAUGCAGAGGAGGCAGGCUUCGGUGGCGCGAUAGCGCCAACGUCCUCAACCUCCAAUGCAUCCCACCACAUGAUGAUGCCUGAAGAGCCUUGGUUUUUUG

# Variants of: B1
# assayExplanation: polymerase ribozyme fitness, log enrichment relative to wild type (log ratio); higher = more active; in vitro selection for triplet polymerase activity
readoutType: polymerase ribozyme fitness (log ratio)

{"columns": ["chain", "readoutType", "result"],
 "data": [
  ["GACCAAUCUGCCAUCAGAGUUCGAGAACAUCUUCGGAUGCAGAGGAGGCAGGCUUCGGUGUCGCGAUAGCGUCAACGUCCUCAACCUCCAAUGCAUCCCACCACAUGAUGAUGCCUGAAGAGCCUUGGUUUUUUG [C13A C20U G61U C72U]", "polymerase ribozyme fitness (log ratio)", -3.24],
  ["GACCAAUCUGCCCUCAGAGCUCGAGAACAUCUUAGGAAGCAGAGGAGGCAGGCUUCGGUGGCGCGAUAGCUCCAACGUCCUCAACCUCCAAUGCAUCCCAUCACAUGAUGAUGCCUGAAGAGCCUUGGUUUUUUG [C34A U38A G71U C101U]", "polymerase ribozyme fitness (log ratio)", -5.16],
  ["GACCAAUCUGCCCUCAGAGCUCGAGAACAUCUUCGGAUGCAGAGGAGGCAGGCUUCGGUGGCGCGAUAGCGCCAACGUCCUCAACCUCCAAUGCUUCCCACCACAUGAUGAUUCCUGAAGAGCCAUGGUUUUUUG [A95U G113U U125A]", "polymerase ribozyme fitness (log ratio)", -3.81],
  ["GACCAAUCUGCCCUCAGAGCUCGAGAUCAUCUUCGGAUGCAGAGGAGGCAGGCUUCGGUGGCGCGAUAGCGCCAACGUGCUCAACCUCCAAUGCAUCCCACCACAUGAUGAUGCCUGAAGAGCCUUUGUUUUUUG [A27U C79G G127U]", "polymerase ribozyme fitness (log ratio)", -4.93],
  ["GACCAAUCUGCCCUCAGAGCUCGAGAACAUCUUCGGAUGCAGAGGAGUCAGGCUUCGGUGGCGCGAUAGCGCCAACGUCCUCAACCUGCAAUGCAACCCACCACAUGAUGAUGCCUGAAGAGCCUUGGUUUUUUG [G48U C88G U96A]", "polymerase ribozyme fitness (log ratio)", -3.43],
  ["GACCAAUCCGCCCUCAGAGCUCGAGAACAUCUUCGGAUGCAGAGGAGGCAGGCUUAGGUGGCGCGAUAGCGCCAACGUCCUCAACCUCCAAUGCAUCCCACCACAUGAUGAUGCCUGAAGAGCCUUGGUUUUUUG [U9C C56A]", "polymerase ribozyme fitness (log ratio)", -0.0544],
  ["GACCAAUCUGCCCUCAGAGCUCGAGAACAUCUUCGGAUGCAGAGGGGGAAGGCUUCGGUGGCGCGAUAGCGCCAACGUCCUCAACCUCCAAUGCAUCCCACCACAUGAUGAUGCCUGAAGAGCCUUGGUUUUUUG [A46G C49A]", "polymerase ribozyme fitness (log ratio)", 0.0417],
  ["GACCAAUCUGCACUCAGAGCUCGAGAACAUCUUCGGAUGCAGAGGAGGCAGGCUUCGGUGGCGCGAUAGCGCCAACGUCCUCAACCUCCAAUGCAUCCCACCACAUGAUGAUGCCUGAACUGCCUUGGUUUUUUG [C12A G120C A121U]", "polymerase ribozyme fitness (log ratio)", 1.87],
  ["GACCAAUCUGCCCUCAGAGCUCGAGAACAUCUUCGGAUGCAGAGGAGCCAGGCUUCGGUGGCGCGAUAGCGCCAACGUCCUCAACCUCCAAUGGAUCCCACCACAUGAUGAUGCUUGAAGAGCCUUGGUUUUUUG [G48C C94G C115U]", "polymerase ribozyme fitness (log ratio)", -3.03],
  ["GACCAAUCUGCCCUCAGAGCUCGAGAACAUCUUCGGAUGAAGAGGAGGCAGGCUUCGGUGGCACGAUAGCGCCAACGUCCUCAACCUCCAAUGCAUCCCACCACAUGAUGAUGCCUGAAGAGCCUUGGUUUUUUG [C40A G63A]", "polymerase ribozyme fitness (log ratio)", -2.68],
  ["GACCAAUCUGCCCUCAGAGCUCGAGAACAUCUUCGGAUGCAGAGGAGGCAGGCUUCGGUGGCUCGAUAGCGCCAACUCCCUCAACCUCCAAUGCAUCCCACCACAUGAUGAUGCCUGAAGAGCCUUGGUUUUUUG [G63U G77U U78C]", "polymerase ribozyme fitness (log ratio)", -2.41],
  ["GACCCAUCUGCCCUCAGAGCUCGAGAACAUCUUCGGAUGCAGAGGAGGCAGGCUUCGGUGGCGCGAUAGCGACAACGUCCUCAACCUCCAAUGCAACCCACCACAUGAUGAUGCCUGAAGAGCCUUAGUUUUUUG [A5C C72A U96A G127A]", "polymerase ribozyme fitness (log ratio)", -2.31],
  ["GACCAAUCUGCCGUCAGAGCUCGAGAACAUCUUUGGAUGCAGAGGAGGCAGGCUUCGGUGGCGCGAUAGCGCCAACGUCCUCAACCUCCAAUGCAUCCCACCACAUGAUGAUGCCUGAAGAGCCUUGGUUUUUUG [C13G C34U]", "polymerase ribozyme fitness (log ratio)", -6.06],
  ["GACCAAUCGGCCCUCAGAGCUCGAGAACAUCUUCGGAUGGAGAGGAGGCAGGCUUCGGUGGCGCGAUAGCGCCAACGUCCUCAACCUCCAAUGCAUCCCACCACAUGAUUAUGCCUGAAGAGGCUUGGUUUUUUG [U9G C40G G110U C123G]", "polymerase ribozyme fitness (log ratio)", -4.98],
  ["GACCAAUCUGCCCUCAGAGCUCGAGAACAUCUUCGGAUGCAGAGGAGGCAGGCUUCGGUGGCGCGAUAGCACCAACGUCCUCAACCUCCAAUGUAACCCACCACAUGAUGAUGCCUGAAGAGCCUUGGUUUUUUG [G71A C94U U96A]", "polymerase ribozyme fitness (log ratio)", -2.05],
  ["GACCAUUCUGCCCUUAGAGCUCGAGGACAUCUUCGGAUGCAGAGGAGGCAGGCUUCGGUGGCGCGAUAGCGCCAACGUCCUCAACUUCCAAUGCAUCCCUCCACAUGAUGAUGCCUGAAAAGACGUGGUUUUUUG [A6U C15U A26G C86U A100U G120A C123A U125G]", "polymerase ribozyme fitness (log ratio)", -5.49],
  ["GACCAAUCUUCCCUCAGAGCUCGAGAACAUCUUCGGAUGCAGAGGAGGCAGGCUUCGGUGGCGCGAUAGCGCCAACGUCCUCAACCUCCAAUGCAUCCCUCCACAUGAUGAUGCCUGAAGAGCCUUGGUUUUUUG [G10U A100U]", "polymerase ribozyme fitness (log ratio)", -1.18],
  ["GACCAAUCUGCCCUCAGAGCUCGAGAACAUCUUCGGAUCCAGAGGAGGCAGGCUUCGGUGGCGCGAUAGCGCCAACGUCCUCAACCUCCAAUGCAUCCCACCACAUGAUGAUGUCUGAAGAGCCUUGGUUUUUUG [G39C C114U]", "polymerase ribozyme fitness (log ratio)", -1.75],
  ["GACCAAUCCGCCCUCAGAGCUCGAGACCAUCUUCGGAUGGAGAGGAGGCAGGCUUCGGUGGCGCGAUAGCGACAACGUCCUCAACCUCCAAUGCAUCCCACCACAUGAUGAUGCCUGAAGAGCCUUGGUUUUUUG [U9C A27C C40G C72A]", "polymerase ribozyme fitness (log ratio)", -3.22],
  ["GACCAUUCUGCCCUCAGUGCUCGAGAACAUCUUCGGAUGCAGAGGAGGCAGGCUUCGGUGGCGCGAUAGCGCCAACGUCCUCAACCUCCAAUCCAUCCCACUACAUGAUGAUGCCUGAAGAGCCUUGGUUUUUUG [A6U A18U G93C C102U]", "polymerase ribozyme fitness (log ratio)", -6.29],
  ["GACCAAUCUGCCCUCAUAGCUCGAGAACAUCUUCGGAUGCAGAGGAGGCAGGCUUCGGUGGCGCGAUAGCGCCAACGUCCUCAACCUCCAAUGCAUCCCACCACAUGAUCAUGCCUGAAGAGCCUUGGUUUUUUG [G17U G110C]", "polymerase ribozyme fitness (log ratio)", -7.86],
  ["GACCAAUCUGCCCUCAGAGCUCGGGAACAUCUUCGGAUGCAGAGGAGGCAGGCUUCGGUGGCGCGAUAGCGCCAACAUCCUCAACCUCCAAUGCAUCCCACCACAUGAUGAUGCUUGAAGAGCCUUGGUUUUUUG [A24G G77A C115U]", "polymerase ribozyme fitness (log ratio)", -2.98]
]}
